- Test Name: qHTS assay for MDR1-selective chemotherapeutics: Primary screen using the drug-selected MDR subline cells KB-V1; also: nearly all actives have a fitted effect of over 60% in size
- Recorded Conditions: KB-V1 MDR cells viability, CellTiter-Glo, 72 h; series mostly up to 46.1 µM
The whole screen tested about 400,000 compounds, of which about 13,000 (3.2%) were called active. About 18% were inconclusive and are not listed. Calls follow the shape of the dose curve; as a rule, active = well fitted cell-killing curve with a large enough effect; inconclusive = small, poorly fitted or top-dose-only effect, or effect the other way; inactive = flat fitted curve, though single readings scatter. The list comes from a sample in which actives are over-represented; it also holds close analogues and randomly drawn compounds.
Answer with one of the outcomes given here: active, inactive

[[record]]
molecule = "CC1CCN(c2nc3ccc(C(=O)N4CCN(c5ccccc5)CC4)cc3s2)CC1"
assigned_label = "inactive"

[[record]]
molecule = "Cc1ccc(C(=O)CSc2nc(-c3ccccc3)nc3c2CCCC3)c(C)c1"
assigned_label = "inactive"

[[record]]
molecule = "Cc1ccc(C(NC(=O)C2CCN(CCOc3ccc(Cl)cc3Cl)CC2)c2ccccn2)cc1 (stereo unspecified)"
assigned_label = "inactive"


Please share the test call associated with C[C@@H]1CN([C@@H](C)CO)C(=O)c2c(c3ccccc3n2C)-c2ccccc2CO[C@H]1CN(C)C(=O)C1CC1 . inactive

Please share the test call associated with Cc1ccc(C(=O)NC2CCN(C(=O)N3CCOCC3)CC2)cc1 . inactive

Please share the test call associated with COc1ccc(NC(=O)c2nc(-n3nc(C)cc3C)ccc2Cl)cc1Cl . inactive

Please share the test call associated with COc1ccc(Nc2cc(C)nc(-n3nc(C)cc3C)n2)cc1 . active

Please share the test call associated with Oc1ccccc1-c1nc2ccc(Cl)cn2c1Nc1ccc2c(c1)OCCO2 . inactive

Please share the test call associated with CC(OC(=O)c1ccc([N+](=O)[O-])cc1)C(=O)NCC1CCCCC1 (stereo unspecified) . inactive

Please share the test call associated with CC(=O)Nc1ccc(Nc2cc(C)nc(Nc3ccc(NC(C)=O)cc3)n2)cc1 . inactive

Please share the test call associated with COc1ccc(NC(=O)CCC(=O)Nc2cc(OC)c(NC(=O)c3ccco3)cc2OC)c(OC)c1 . inactive

Please share the test call associated with O=C(C=CC(=O)Nc1ccc(F)cc1F)Nc1ccc(F)cc1F . inactive

Please share the test call associated with C[C@H](CO)N1C[C@H](C)[C@@H](CN(C)S(=O)(=O)c2ccc(Oc3ccccc3)cc2)OCc2cn(nn2)CCCC1=O . inactive

Please share the test call associated with Oc1c(C(c2ccc(F)cc2)N2CCN(Cc3ccccc3)CC2)sc2nc(-c3ccco3)nn12 (stereo unspecified) . inactive

Please share the test call associated with Nc1nc2ncccn2c1-c1ccccc1 . inactive

----------
- Test Name: qHTS assay for MDR1-selective chemotherapeutics: Primary screen using the drug-selected MDR subline cells KB-V1; also: nearly all actives have a fitted effect of over 60% in size
- Recorded Conditions: KB-V1 MDR cells viability, CellTiter-Glo, 72 h; series mostly up to 46.1 µM
The campaign covered roughly 400,000 compounds. About 13,000 (3.2%) were called active. Another 18% or so got no clear call; they are omitted. Calls follow the shape of the dose curve; as a rule, active = well fitted cell-killing curve with a large enough effect; inconclusive = small, poorly fitted or top-dose-only effect, or effect the other way; inactive = flat fitted curve, though single readings scatter. Only a selection was taken, and actives are over-represented in it overall.
Answer with one of the outcomes given here: active, inactive

Sample answers from the record:
[[record]]
compound = "C(=Nc1ccc(/C=C/c2ccnc3ccccc23)cc1)c1cc2c3c(c1)CCCN3CCC2"
assigned_label = "inactive"

[[record]]
compound = "CCOc1cccc2c1N[C@@H](c1ccc(C(=O)O)cc1)[C@H]1CC=C[C@@H]21"
assigned_label = "inactive"

[[record]]
compound = "CCCCCCC1(C)NC(c2ccc3c(c2)OCO3)=CC(c2ccccc2O)N1 (stereo unspecified)"
assigned_label = "inactive"

[[record]]
compound = "COc1ccc(CN2C(=O)C(CC(=O)NCCN3CCOCC3)CC(C(=O)N(C(C)C)C(C)C)=C2C)cc1 (stereo unspecified)"
assigned_label = "inactive"


Please share the test call associated with COc1cc(OC)cc(C(=O)N[C@H](C(=O)Nc2nc3ccccc3[nH]2)C(C)C)c1 . active

Please share the test call associated with Cc1ccccc1NC(=O)c1cc(S(=O)(=O)Nc2cccc(C(=O)O)c2)ccc1Cl . inactive

Please share the test call associated with COc1ccc(-c2nc(CN3CCC(C(=O)NCc4ccccc4)CC3)c(C)o2)cc1OC . inactive

Please share the test call associated with Cc1c(C)c(C)c2[nH]c(=S)[nH]c2c1C . active

----------
- Test Name: qHTS assay for MDR1-selective chemotherapeutics: Primary screen using the drug-selected MDR subline cells KB-V1; also: nearly all actives have a fitted effect of over 60% in size
- Recorded Conditions: KB-V1 MDR cells viability, CellTiter-Glo, 72 h; series mostly up to 46.1 µM
Hit rate of the full screen: of about 400,000 compounds, about 13,000 (3.2%) were called active. Inconclusive results (about 18%) are left out. The call rests on the fitted dose curve; in most records, active means well fitted cell-killing curve with a large enough effect; inconclusive means small, poorly fitted or top-dose-only effect, or effect the other way; inactive means flat fitted curve, though single readings scatter. Only a selection was taken, and actives are over-represented in it overall.
Answer with one of the outcomes given here: yes (1) for active, no (0) for inactive

Sample answers from the record:
[[record]]
compound = "CCOC(=O)N1CCN(C(=O)C[C@@H]2C[C@@]3(C(=O)OC)CC(C)(C)CC=C3N(Cc3ccco3)C2=O)CC1"
assigned_label = "no (0)"

[[record]]
compound = "COC(=O)[C@]12CCCCC=C1N(Cc1ccco1)C(=O)[C@H](CC(=O)NCCCCc1ccccc1)C2"
assigned_label = "no (0)"

[[record]]
compound = "COC(=O)[C@@]12C[C@@H](CC(=O)NCCCCc3ccccc3)C(=O)N(CCc3ccc(OC)c(OC)c3)C1=CCC(C)(C)C2"
assigned_label = "yes (1)"


Please share the test call associated with CCN(CC)C(=O)C1=C(C)N(Cc2ccc(OC)cc2)C(=O)C(CC(=O)NCCCCc2ccccc2)C1 (centres undefined) . no (0)

----------
- Test Name: qHTS assay for MDR1-selective chemotherapeutics: Primary screen using the drug-selected MDR subline cells KB-V1; also: nearly all actives have a fitted effect of over 60% in size; also: potency is read from the fitted curve at half-maximal effect
- Recorded Conditions: KB-V1 MDR cells viability, CellTiter-Glo, 72 h; series mostly up to 46.1 µM
The campaign covered roughly 400,000 compounds. About 13,000 (3.2%) were called active. About 18% were inconclusive and are not listed. This is one part of a sample in which actives are shown more often than they occur.
Readout Type: Potency

Answered examples (4):
[[record]]
molecule = "COc1ccc(-c2nc3cnccn3c2NC2CCCCC2)cc1-c1cccc(Cl)c1"
val = "14.6 µM (active)"

[[record]]
molecule = "COc1ccc(C)cc1S(=O)(=O)NC1CCCCC1"
val = "inactive"

[[record]]
molecule = "CCOc1cc(-c2nnc(SCC(=O)NC3CCCCC3)nc2-c2ccc(OC)c(OCC)c2)ccc1OC"
val = "inactive"

[[record]]
molecule = "COc1ccccc1N1CCN(c2ncnc3onc(-c4cccc(Cl)c4)c23)CC1"
val = "inactive"


# next molecule below
Look up Potency: CC1(C(=O)NS(=O)(=O)c2ccccc2)CCN1C(=O)C1CCCCC1 (stereo not given) inactive

----------
- Test Name: qHTS assay for MDR1-selective chemotherapeutics: Primary screen using the drug-selected MDR subline cells KB-V1; also: nearly all actives have a fitted effect of over 60% in size
- Recorded Conditions: KB-V1 MDR cells viability, CellTiter-Glo, 72 h; series mostly up to 46.1 µM
The whole screen tested about 400,000 compounds, of which about 13,000 (3.2%) were called active. Roughly 18% stayed inconclusive and do not appear here. The call rests on the fitted dose curve; in most records, active means well fitted cell-killing curve with a large enough effect; inconclusive means small, poorly fitted or top-dose-only effect, or effect the other way; inactive means flat fitted curve, though single readings scatter. What follows is part of a selection rich in actives, with near analogues and random picks from the rest.
Answer with one of the outcomes given here: active, inactive

Sample answers from the record:
[[record]]
smiles_repr = "CCCn1c(N)c(C(=O)CSc2nnc(Cc3cccs3)n2C2CC2)c(=O)[nH]c1=O"
assigned_label = "inactive"

[[record]]
smiles_repr = "Cc1ccc(C(=O)Nc2nc(-c3ccccc3)ns2)cc1"
assigned_label = "inactive"

[[record]]
smiles_repr = "COC(=O)c1ccc(Cn2c(SCC(=O)N(C)c3ccccc3)nc3ccccc32)cc1"
assigned_label = "inactive"

[[record]]
smiles_repr = "Cc1ccc(C(=O)c2c(NC(=O)c3ccccc3)sc(C)c2C)cc1"
assigned_label = "active"


Now let's try a different one.
Please share the test call associated with COC(=O)c1cc(NC(=O)c2cc(C(C)(C)C)nn2Cc2cccc(C)c2)ccc1N1CCOCC1 . active

----------
- Test Name: qHTS assay for MDR1-selective chemotherapeutics: Primary screen using the drug-selected MDR subline cells KB-V1; also: nearly all actives have a fitted effect of over 60% in size; also: potency is read from the fitted curve at half-maximal effect
- Recorded Conditions: KB-V1 MDR cells viability, CellTiter-Glo, 72 h; series mostly up to 46.1 µM
The whole screen tested about 400,000 compounds, of which about 13,000 (3.2%) were called active. Roughly 18% stayed inconclusive and do not appear here. For the sample, actives were picked, then their nearest neighbours and some compounds at random.
Readout Type: Potency

Answered examples (8):
[[record]]
compound = "CC(NC(=O)c1ccccc1F)c1cccc2ccccc12 (stereo unspecified)"
val = "inactive"

[[record]]
compound = "COc1ccc(Cl)cc1-c1cc(C(=O)Nc2cc(OC)c(OC)c(OC)c2)[nH]n1"
val = "inactive"

[[record]]
compound = "COC(=O)c1ccc(CSc2nc3ccccc3c(=O)n2-c2cccc(OC)c2)o1"
val = "inactive"

[[record]]
compound = "Cc1ccc(C=O)c([B-](F)(F)F)c1"
val = "inactive"

[[record]]
compound = "Cc1cccc2nc(CSc3nc4[nH]ncc4c(=O)n3-c3cccc(Cl)c3)cc(=O)n12"
val = "23.1 µM (active)"

[[record]]
compound = "O=C(NCc1ccc(F)cc1F)[C@@H]1CCCN1C(=O)[C@@H]1CCCN1C(=O)c1cccc(Cl)c1"
val = "inactive"

[[record]]
compound = "COC(=O)c1sc2ncccc2c1-n1c(C)ccc1C"
val = "inactive"

[[record]]
compound = "CN1c2ccc(C=O)c3c(C=O)ccc(c23)N(C)C1(C)C"
val = "18.4 µM (active)"


Look up Potency: COc1ccc(C(C)(O)c2nc(-c3ccc(C)c(C)c3)cs2)cc1 (stereo unspecified) inactive

Look up Potency: N#CCCN(C(=S)Nc1ccc(Cl)c(Cl)c1)C1CCCCC1 inactive

Look up Potency: CCCCn1c(CNC(=O)C23CC4CC(CC(C4)C2)C3)nnc1SCC(=O)Nc1ccc(C)cc1 inactive
